Task for the reader: assign each of the following molecules its reported solubility thermodynamic at 12 h.
Experiment: Solubility test (equilibrium solubility in deionized water, HPLC)
Type: physicochemical
Conditions: thermodynamic from solid, 37° C.
Write the number in µM without appending the unit.

query: Name the recorded solubility thermodynamic at 12 h for COc1cc2c(Oc3ccc(NC(=O)C4(C(=O)Nc5ccc(F)cc5)CC4)cc3)ccnc2cc1OCCCOCCCOCCC(=O)N[C@H](C(=O)N1C[C@H](OP(=O)(O)OCCCCCCCCCC(=O)NC(COCCC(=O)NCCCNC(=O)CCCCOC2OC(CO)C(O)C(O)C2NC(C)=O)(COCCC(=O)NCCCNC(=O)CCCCOC2OC(CO)C(O)C(O)C2NC(C)=O)COCCC(=O)NCCCNC(=O)CCCCOC2OC(CO)C(O)C(O)C2NC(C)=O)C[C@H]1C(=O)NCc1ccc(-c2scnc2C)cc1)C(C)(C)C (stereo partly shown) .
result: 476

query: What would you report for COc1cc2c(Oc3ccc(NC(=O)C4(C(=O)Nc5ccc(F)cc5)CC4)cc3F)ccnc2cc1OCCCOCCCOCCC(=O)N[C@H](C(=O)N1C[C@H](OP(=O)(O)OCCCCCCCCCC(=O)NC(COCCC(=O)NCCCNC(=O)CCCCOC2OC(CO)C(O)C(O)C2NC(C)=O)(COCCC(=O)NCCCNC(=O)CCCCOC2OC(CO)C(O)C(O)C2NC(C)=O)COCCC(=O)NCCCNC(=O)CCCCOC2OC(CO)C(O)C(O)C2NC(C)=O)C[C@H]1C(=O)NCc1ccc(-c2scnc2C)cc1)C(C)(C)C (stereo partly shown) ?
result: 731

query: Queued: COc1cc2nccc(Oc3ccc(NC(=O)NC4CC4)c(Cl)c3)c2cc1C(=O)NCCCCCCC(=O)N[C@H](C(=O)N1C[C@H](OP(=O)(O)OCCCCCCCCCC(=O)NC(CNC(=O)CCCCCCOC2OC(CO)C(O)C(O)C2NC(C)=O)CNC(=O)CCCCCCOC2OC(CO)C(O)C(O)C2NC(C)=O)C[C@H]1C(=O)NCc1ccc(-c2scnc2C)cc1)C(C)(C)C (stereo partly shown)
result: 603

query: Consider next the molecule `COc1cc2nccc(Oc3ccc(NC(=O)NC4CC4)c(Cl)c3)c2cc1C(=O)NCCCCCCC(=O)N[C@H](C(=O)N1C[C@H](O)C[C@H]1C(=O)NCc1ccc(-c2scnc2C)cc1)C(C)(C)C` in the same way.
result: 31
